Entry source: the supplement of paper PMC6555819

Tested on: RARa homodimer (NR concentration 270 nM)
assay overview: PBM binding z-score (relative to random genomic background probes); higher = stronger binding; sequences stand for … in GC…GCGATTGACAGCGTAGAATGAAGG
assay readout: PBM binding z-score
Please reply with the number alone, leaving off any unit.

Lookup result for CCTACTGGGTCAAAGGTCATTGATTCCAATGCTC ; measured PBM binding z-score: 2.65

Lookup result for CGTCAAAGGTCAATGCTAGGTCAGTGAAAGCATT ; measured PBM binding z-score: 2.5

Lookup result for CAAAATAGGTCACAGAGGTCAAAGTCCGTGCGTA ; measured PBM binding z-score: 1.88

Lookup result for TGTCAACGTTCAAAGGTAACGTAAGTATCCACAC ; measured PBM binding z-score: 0.107

Lookup result for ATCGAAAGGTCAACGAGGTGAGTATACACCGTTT ; measured PBM binding z-score: 3.85

Lookup result for TTACCAAGGTCAAAGGTCGTTGATGCACGCCTTG ; measured PBM binding z-score: 1.08

Lookup result for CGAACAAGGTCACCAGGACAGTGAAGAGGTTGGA ; measured PBM binding z-score: 3.06

Lookup result for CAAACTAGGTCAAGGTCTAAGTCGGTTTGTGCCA ; measured PBM binding z-score: 0.357

Lookup result for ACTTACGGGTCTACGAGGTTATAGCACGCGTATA ; measured PBM binding z-score: 0.676

Lookup result for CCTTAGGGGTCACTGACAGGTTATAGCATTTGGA ; measured PBM binding z-score: 2.05

Lookup result for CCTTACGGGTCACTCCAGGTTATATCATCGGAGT ; measured PBM binding z-score: 0.321

Lookup result for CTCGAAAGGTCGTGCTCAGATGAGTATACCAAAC ; measured PBM binding z-score: 0.441

Lookup result for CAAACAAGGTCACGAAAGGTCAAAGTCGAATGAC ; measured PBM binding z-score: 5.3

Lookup result for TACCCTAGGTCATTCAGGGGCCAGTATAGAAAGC ; measured PBM binding z-score: 0.569

Lookup result for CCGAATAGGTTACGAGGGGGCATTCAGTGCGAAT ; measured PBM binding z-score: 0.865

Lookup result for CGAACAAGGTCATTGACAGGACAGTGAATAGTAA ; measured PBM binding z-score: 1.42

Lookup result for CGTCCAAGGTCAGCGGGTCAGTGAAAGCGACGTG ; measured PBM binding z-score: 1.34

Lookup result for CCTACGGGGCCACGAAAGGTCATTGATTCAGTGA ; measured PBM binding z-score: 0.351

Lookup result for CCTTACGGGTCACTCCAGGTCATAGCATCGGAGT ; measured PBM binding z-score: 0.835

Lookup result for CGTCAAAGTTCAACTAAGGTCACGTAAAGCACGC ; measured PBM binding z-score: 3.25

Lookup result for TAGCCTAGGTCATTCAGGGGCCACTATAGAAAGC ; measured PBM binding z-score: 0.262

Lookup result for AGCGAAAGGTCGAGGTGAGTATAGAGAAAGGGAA ; measured PBM binding z-score: 0.743

Lookup result for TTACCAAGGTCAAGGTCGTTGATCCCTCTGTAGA ; measured PBM binding z-score: 1.71

Lookup result for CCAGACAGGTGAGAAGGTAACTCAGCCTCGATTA ; measured PBM binding z-score: 0.698

Lookup result for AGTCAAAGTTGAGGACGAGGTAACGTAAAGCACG ; measured PBM binding z-score: 0.0325

Lookup result for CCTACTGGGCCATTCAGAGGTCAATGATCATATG ; measured PBM binding z-score: 0.374

====

Test system: FXR:RXRa (NR concentration 270 nM, RXRa partner concentration 90 nM)
assay overview: PBM binding z-score (relative to random genomic background probes); higher = stronger binding; sequences stand for … in GC…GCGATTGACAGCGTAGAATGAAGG
assay readout: PBM binding z-score
Please reply with the number alone, leaving off any unit.

Lookup result for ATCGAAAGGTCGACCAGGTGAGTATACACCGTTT ; measured PBM binding z-score: 4.91

Lookup result for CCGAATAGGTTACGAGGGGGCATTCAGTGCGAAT ; measured PBM binding z-score: 3.52

Lookup result for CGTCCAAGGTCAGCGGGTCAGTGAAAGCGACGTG ; measured PBM binding z-score: 5.98

Lookup result for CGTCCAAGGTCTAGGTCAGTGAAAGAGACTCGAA ; measured PBM binding z-score: 0.449

Lookup result for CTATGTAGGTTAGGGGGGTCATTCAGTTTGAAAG ; measured PBM binding z-score: 5.78

Lookup result for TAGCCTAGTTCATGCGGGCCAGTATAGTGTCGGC ; measured PBM binding z-score: -0.33

Lookup result for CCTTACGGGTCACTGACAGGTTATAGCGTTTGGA ; measured PBM binding z-score: 5.14

Lookup result for ACTCGGAGGACAAAGGTCAGGGCTACGCCAGTGA ; measured PBM binding z-score: 4.61

Lookup result for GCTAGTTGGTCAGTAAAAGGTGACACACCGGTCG ; measured PBM binding z-score: 0.000592

Lookup result for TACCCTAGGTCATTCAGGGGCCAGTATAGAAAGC ; measured PBM binding z-score: 4.73

Lookup result for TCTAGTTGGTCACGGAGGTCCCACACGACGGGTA ; measured PBM binding z-score: -0.177

Lookup result for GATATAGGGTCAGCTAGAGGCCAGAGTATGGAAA ; measured PBM binding z-score: 5.03

====

Test system: PPARg:RXRa (NR concentration 180 nM, RXRa partner concentration 90 nM)
assay overview: PBM binding z-score (relative to random genomic background probes); higher = stronger binding; sequences stand for … in GC…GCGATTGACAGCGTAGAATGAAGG
Please note: criterion met applies when PBM binding z-score is 4 or greater, and criterion not met applies otherwise.

Exam item: decide whether the reported PBM binding z-score for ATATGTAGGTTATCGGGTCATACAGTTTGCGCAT is at least 4.
criterion met

Exam item: decide whether the reported PBM binding z-score for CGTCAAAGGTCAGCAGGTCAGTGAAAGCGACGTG is at least 4.
criterion met

Exam item: decide whether the reported PBM binding z-score for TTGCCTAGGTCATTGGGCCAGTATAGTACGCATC is at least 4.
criterion not met

Exam item: decide whether the reported PBM binding z-score for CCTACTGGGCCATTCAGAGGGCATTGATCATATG is at least 4.
criterion not met

Exam item: decide whether the reported PBM binding z-score for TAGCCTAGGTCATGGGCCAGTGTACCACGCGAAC is at least 4.
criterion met

Exam item: decide whether the reported PBM binding z-score for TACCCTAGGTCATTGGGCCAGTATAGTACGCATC is at least 4.
criterion met

Exam item: decide whether the reported PBM binding z-score for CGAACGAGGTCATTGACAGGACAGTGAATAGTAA is at least 4.
criterion met

Exam item: decide whether the reported PBM binding z-score for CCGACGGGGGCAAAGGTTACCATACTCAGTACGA is at least 4.
criterion met

Exam item: decide whether the reported PBM binding z-score for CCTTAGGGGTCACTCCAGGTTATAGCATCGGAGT is at least 4.
criterion met

Exam item: decide whether the reported PBM binding z-score for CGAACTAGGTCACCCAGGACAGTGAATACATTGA is at least 4.
criterion met

Exam item: decide whether the reported PBM binding z-score for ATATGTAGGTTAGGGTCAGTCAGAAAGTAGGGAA is at least 4.
criterion met

Exam item: decide whether the reported PBM binding z-score for TCTAGTTGGTCACGGAGGTCACAAACGACGGGTA is at least 4.
criterion not met

====

Test system: RARa:RXR (NR concentration 270 nM, RXRa partner concentration 90 nM)
assay overview: PBM binding z-score (relative to random genomic background probes); higher = stronger binding; sequences stand for … in GC…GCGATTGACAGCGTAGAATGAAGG
Please note: criterion met applies when PBM binding z-score is 5 or greater, and criterion not met applies otherwise.

Exam item: decide whether the reported PBM binding z-score for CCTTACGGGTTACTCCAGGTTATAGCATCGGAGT is at least 5.
criterion not met

Exam item: decide whether the reported PBM binding z-score for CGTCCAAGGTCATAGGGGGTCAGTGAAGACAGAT is at least 5.
criterion met

Exam item: decide whether the reported PBM binding z-score for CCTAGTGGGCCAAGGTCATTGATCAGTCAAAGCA is at least 5.
criterion not met

Exam item: decide whether the reported PBM binding z-score for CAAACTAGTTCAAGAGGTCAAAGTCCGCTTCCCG is at least 5.
criterion met

Exam item: decide whether the reported PBM binding z-score for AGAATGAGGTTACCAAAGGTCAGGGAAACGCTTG is at least 5.
criterion met

Exam item: decide whether the reported PBM binding z-score for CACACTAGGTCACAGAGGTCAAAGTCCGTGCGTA is at least 5.
criterion met

Exam item: decide whether the reported PBM binding z-score for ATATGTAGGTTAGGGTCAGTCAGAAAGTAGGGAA is at least 5.
criterion not met

Exam item: decide whether the reported PBM binding z-score for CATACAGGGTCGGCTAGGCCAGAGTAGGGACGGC is at least 5.
criterion not met

Exam item: decide whether the reported PBM binding z-score for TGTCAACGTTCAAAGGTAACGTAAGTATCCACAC is at least 5.
criterion not met

Exam item: decide whether the reported PBM binding z-score for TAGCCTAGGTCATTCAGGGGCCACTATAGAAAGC is at least 5.
criterion not met

Exam item: decide whether the reported PBM binding z-score for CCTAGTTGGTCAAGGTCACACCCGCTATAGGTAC is at least 5.
criterion not met

Exam item: decide whether the reported PBM binding z-score for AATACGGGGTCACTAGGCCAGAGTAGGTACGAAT is at least 5.
criterion met

Exam item: decide whether the reported PBM binding z-score for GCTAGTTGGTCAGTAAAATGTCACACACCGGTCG is at least 5.
criterion not met

Exam item: decide whether the reported PBM binding z-score for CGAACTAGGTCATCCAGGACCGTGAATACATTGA is at least 5.
criterion not met

Exam item: decide whether the reported PBM binding z-score for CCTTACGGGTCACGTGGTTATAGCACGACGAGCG is at least 5.
criterion not met

Exam item: decide whether the reported PBM binding z-score for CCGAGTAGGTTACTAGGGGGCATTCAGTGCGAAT is at least 5.
criterion not met

Exam item: decide whether the reported PBM binding z-score for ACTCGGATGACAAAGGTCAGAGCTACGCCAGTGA is at least 5.
criterion not met

Exam item: decide whether the reported PBM binding z-score for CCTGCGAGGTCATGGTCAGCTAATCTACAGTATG is at least 5.
criterion met

Exam item: decide whether the reported PBM binding z-score for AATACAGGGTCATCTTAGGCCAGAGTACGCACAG is at least 5.
criterion not met

Exam item: decide whether the reported PBM binding z-score for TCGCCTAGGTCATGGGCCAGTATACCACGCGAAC is at least 5.
criterion not met

Exam item: decide whether the reported PBM binding z-score for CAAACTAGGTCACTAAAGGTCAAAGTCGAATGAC is at least 5.
criterion met

Exam item: decide whether the reported PBM binding z-score for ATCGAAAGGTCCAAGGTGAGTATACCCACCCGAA is at least 5.
criterion not met

Exam item: decide whether the reported PBM binding z-score for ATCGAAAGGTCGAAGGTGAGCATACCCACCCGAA is at least 5.
criterion not met

Exam item: decide whether the reported PBM binding z-score for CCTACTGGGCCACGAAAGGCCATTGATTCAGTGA is at least 5.
criterion not met

Exam item: decide whether the reported PBM binding z-score for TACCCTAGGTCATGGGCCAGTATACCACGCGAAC is at least 5.
criterion not met
